- Test system: OVCAR-4 ovarian
- Assay comment: NCI-60 one-dose screen, 48 h
- Applied conditions: 100 µM
Compounds without any hit were thinned out: in the full panel of roughly 83,000, 20% have a hit. Active and inactive are the calls of the source. Rule for the calls: active = growth percent below 10; inactive = the rest.
Pick from True for active, False for inactive when you respond.

Dear all, I need the recorded test outcome for CC(=O)/C=C/c1ccc(N(CCO)Cc2ccc(C(C)(C)C)cc2)cc1 , thank you. True

And the next one, CCN(Cc1ccccc1)c1ccc(/C=C2\COc3ccccc3C2=O)cc1 ? False

And the next one, CC(=O)/C=C/c1ccc(OCc2ccc(C(C)(C)C)cc2)cc1 ? False

And the next one, COc1ccc(C(=O)/C=C/c2ccc(OCc3ccc(Cl)cc3)cc2)cc1OC ? True

And the next one, CC(=O)/C=C/c1ccc(OCc2ccc(Cl)cc2)cc1 ? False

And the next one, O=C(/C=C/c1cccc(Oc2ccc(Cl)cc2)c1)c1ccccc1 ? True

And the next one, CC(=O)/C=C/c1ccc(N(C)Cc2ccc(C(C)(C)C)cc2)cc1 ? True

###

- System: SNB-75 CNS
- Assay comment: NCI-60 one-dose screen, 48 h (100 = growth as untreated, 0 = no growth, -100 = all killed)
- Applied conditions: 10 µM unless noted
The panel holds about 83,000 compounds, 20% with a hit somewhere; the sample as a whole holds those more often.
Threshold check on growth: at or above 90% gives 1, strictly below gives -1.

Entry COc1ccc2c(c1)oc1c(C)c3c(c(C)c12)C(=O)N(Nc1ccccc1)C3=O : is its growth no less than 90%? 1

And the next one, O=C(Nc1ccc2ccccc2c1)c1cc2ccccc2cc1O ? 1

And the next one, CN1C(=O)N(C)C2(c3ccccc3)N(CC(=O)Nc3ccccc3O)C(=O)NC12c1ccccc1 (stereo unspecified) ? -1

And the next one, Nc1ncnc2c1C(c1ccc([N+](=O)[O-])cc1)c1sc3c(F)cccc3c1O2 (stereo unspecified) ? 1

And the next one, CON1CCC[C@]2(C)[C@H]3CC[C@@H]4[C@H]5[C@@H](O)C(C)(C)CC[C@]5(CO)CC[C@@]4(C)[C@]3(C)CC[C@H]2C1(C)C ? 1

And the next one, Cn1cc(C2=C(c3cccc4ccccc34)C(=O)NC2=O)c2cc(Br)ccc21 ? -1

And the next one, C=C1C(=O)O[C@H]2[C@H]1CC/C(COC(=O)NCc1ccc(Cn3c(=O)sn(CCCI)c3=O)cc1)=C\CC[C@@]1(C)O[C@@H]21 ? -1

And the next one, Cn1cc2c(=O)nc3c(-c4nc5ccccc5[nH]4)n[nH]n3c2n1 ? 1

And the next one, O=C1C(N2CCOCC2)=C(I)C(=O)c2ncccc21 ? -1

And the next one, CCOC(=O)c1cnn(-c2ccc(S(N)(=O)=O)cc2)c1N ? -1

And the next one, O=C(NNC(=S)Nc1ccccc1)c1ccncc1 ? 1

And the next one, CC(=NCc1ccccc1)c1ccc(O)cc1O ? -1

And the next one, Nc1nc2ccccc2c2c(=O)c3ccc(Cl)cc3sc12 ? 1

And the next one, O=c1c2c([nH]c3ccccc13)CCCC2 ? -1

And the next one, Cc1ccc(C(=O)c2ccc(CC(=O)N=Nc3c(O)[nH]c4ccc(OC(F)(F)F)cc34)n2C)cc1 ? -1

And the next one, C/C(=C(\c1ccc(OCCN2CCOCC2)cc1)c1ccc(OC(=O)C2CCCCC2)cc1)c1ccc(Cl)cc1 ? 1

And the next one, O=C(Cc1ccc(F)cc1)c1ccccc1 ? 1

And the next one, O=C1N=c2ccccc2=C1c1sc(=S)n(C2CC(=O)N(c3ccc(Cl)cc3)C2=O)c1O (stereo unspecified) ? -1

And the next one, CC[C@@H]1NC(=O)[C@H]([C@H](O)[C@H](C)C/C=C/c2ccc(CN3C(=O)C(C)=C(C)C3=O)cc2)N(C)C(=O)[C@H](C(C)C)N(C)C(=O)[C@H](CC(C)C)N(C)C(=O)[C@H](CC(C)C)N(C)C(=O)[C@@H](C)NC(=O)[C@H](C)NC(=O)[C@H](CC(C)C)N(C)C(=O)[C@H](C(C)C)NC(=O)[C@H](CC(C)C)N(C)C(=O)CN(C)C1=O ? -1

And the next one, O=C([C@H]1C[C@H]1c1ccc(S(F)(F)(F)(F)F)cc1)N1CCN(c2cc(Cl)ccc2C(F)(F)F)CC1 ? 1
